- Test system: 786-0 renal
- assayProtocol: NCI tumour cell line growth inhibition, 48 h
Reported TGI values follow for various molecules

molecule: COC(=O)c1c2c(cc3c1CC1(Cc4cc5c(c(C)c4C1)CCC5)C3)CCC2 (stereo not drawn)
targetUnderTest: 786-0 renal
unitsLabel: µM
relationOperator: >
TGI: 100
--
molecule: O=c1[nH]cc(N=Cc2cc(Cl)ccc2O)c(=O)[nH]1
targetUnderTest: 786-0 renal
unitsLabel: µM
relationOperator: =
TGI: 70.6
--
molecule: O=C1c2ccncc2C(=O)c2c(O)ccc(O)c21
targetUnderTest: 786-0 renal
unitsLabel: µM
relationOperator: =
TGI: 19.2
--
molecule: C=CCC12CC(=O)CCC1c1ccc(OC)cc1C2=O (stereo not drawn)
targetUnderTest: 786-0 renal
unitsLabel: µM
relationOperator: >
TGI: 100
--
molecule: COc1ccc(/C=C2\CCCc3ccccc3C2=O)cc1
targetUnderTest: 786-0 renal
unitsLabel: µM
relationOperator: =
TGI: 12.2
--
molecule: COc1ccc(-c2cc3ccccc3[nH]c2=O)cc1OC
targetUnderTest: 786-0 renal
unitsLabel: µM
relationOperator: >
TGI: 100
--
molecule: CN1CCN(C(=O)c2ccc(NC(=O)Nc3ccc(-c4nc(N5CCOCC5)c5cccn5n4)cc3)cc2)CC1
targetUnderTest: 786-0 renal
unitsLabel: µM
relationOperator: =
TGI: 1.11
--
molecule: C/C(=N\Nc1nc2ccccc2[nH]1)c1ncccn1
targetUnderTest: 786-0 renal
unitsLabel: µM
relationOperator: >
TGI: 100
--
molecule: O=C1NC(=O)C(=Cc2cn(Cc3ccccc3)c3ccccc23)C(=O)N1
targetUnderTest: 786-0 renal
unitsLabel: µM
relationOperator: =
TGI: 33
--
molecule: O=c1cc(-c2ccccc2)oc2c1ccc1[nH]c3ccccc3c(=O)c12
targetUnderTest: 786-0 renal
unitsLabel: µM
relationOperator: >
TGI: 100
--
molecule: O=c1[nH]c2ccccc2c(O)c1/C=N/C(=S)NC1CCCCC1
targetUnderTest: 786-0 renal
unitsLabel: µM
relationOperator: >
TGI: 100
--
molecule: CCC[CH2][Sn]([CH2]CCC)([CH2]CCC)/[C](=C/[Si](C)(C)c1ccccc1)c1ccc2c(c1)OCO2
targetUnderTest: 786-0 renal
unitsLabel: µM
relationOperator: =
TGI: 30.9
--
molecule: O=C1C=CC2(O[C@H](C3CCCCC3)[C@@H](C3CCCCC3)O2)C(SC(=O)c2ccccc2)C1 (stereo partly drawn)
targetUnderTest: 786-0 renal
unitsLabel: µM
relationOperator: =
TGI: 5.09
--
molecule: CCOC(=O)c1sc2c(C(=O)OCC)n3cc(C)cc(C)c3c2c1O
targetUnderTest: 786-0 renal
unitsLabel: µM
relationOperator: >
TGI: 100
--
molecule: Nc1ccc2c(=O)cc(-c3ccc(Br)s3)[nH]c2n1
targetUnderTest: 786-0 renal
unitsLabel: µM
relationOperator: >
TGI: 100
--
molecule: Cc1cc2nc3ccccc3n2c2ccccc12
targetUnderTest: 786-0 renal
unitsLabel: µM
relationOperator: >
TGI: 10
--
molecule: NC(N)=NC(N)=Nc1ccc(C(=O)O)cc1
targetUnderTest: 786-0 renal
unitsLabel: µM
relationOperator: >
TGI: 100
--
molecule: O=C1C=CC(=O)c2c(O)c(N3CCOCC3)c(Cl)c(O)c21
targetUnderTest: 786-0 renal
unitsLabel: µM
relationOperator: =
TGI: 0.84
--
molecule: O=C1c2ccccc2C2(c3ccc(F)cc3)NCCN12 (stereo not drawn)
targetUnderTest: 786-0 renal
unitsLabel: µM
relationOperator: >
TGI: 100
--
molecule: O=C1CC(C2(O)C(=O)Nc3ccc([N+](=O)[O-])cc32)c2ccccc21 (stereo not drawn)
targetUnderTest: 786-0 renal
unitsLabel: µM
relationOperator: =
TGI: 36.6
--
molecule: COc1ccc(OC)c2c(C)ccnc12
targetUnderTest: 786-0 renal
unitsLabel: µM
relationOperator: >
TGI: 100
--
molecule: N#CC1=C(N)NC(N2CCOCC2)=NC12Nc1ccccc1O2 (stereo not drawn)
targetUnderTest: 786-0 renal
unitsLabel: µM
relationOperator: =
TGI: 60.1
--
molecule: Oc1ccc2ccccc2c1OCc1nnc(CCCCCCCCc2nnc(COc3c(O)ccc4ccccc34)n2Nc2ccccc2)n1Nc1ccccc1
targetUnderTest: 786-0 renal
unitsLabel: µM
relationOperator: =
TGI: 58.7
